These measurements were taken from patent US20240327380A1.

# IC50 measurements, system: active BTK enzyme (Upstate 14-552) (Homo sapiens)
# Sequence (Q06187 whole entry): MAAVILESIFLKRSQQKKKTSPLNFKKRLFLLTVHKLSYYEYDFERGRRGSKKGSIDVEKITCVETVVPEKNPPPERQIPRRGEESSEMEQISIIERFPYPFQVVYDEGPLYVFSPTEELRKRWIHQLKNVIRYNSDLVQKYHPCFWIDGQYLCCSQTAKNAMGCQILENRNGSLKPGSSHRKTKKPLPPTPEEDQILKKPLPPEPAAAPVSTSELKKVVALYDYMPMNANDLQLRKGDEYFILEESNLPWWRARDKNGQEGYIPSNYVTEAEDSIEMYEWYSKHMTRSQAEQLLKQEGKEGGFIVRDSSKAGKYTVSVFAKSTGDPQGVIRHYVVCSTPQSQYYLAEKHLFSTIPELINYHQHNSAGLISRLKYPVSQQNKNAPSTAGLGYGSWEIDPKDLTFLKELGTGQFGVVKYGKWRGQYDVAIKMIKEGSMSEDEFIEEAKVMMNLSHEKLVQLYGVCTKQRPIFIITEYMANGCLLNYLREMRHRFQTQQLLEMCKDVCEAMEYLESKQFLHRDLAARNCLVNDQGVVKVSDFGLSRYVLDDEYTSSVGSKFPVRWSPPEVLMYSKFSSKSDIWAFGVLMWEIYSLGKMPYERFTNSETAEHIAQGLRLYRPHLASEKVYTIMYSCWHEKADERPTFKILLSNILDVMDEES
reported.metric: IC50

compound | reported.metric | result
C=CC(=O)N1CCN(c2cncnc2-c2ccc(CNC(=O)c3nc(C(C)(C)C)no3)c(C)c2)CC1 [Example 83] | IC50 | ≤ 1 nM
C=CC(=O)N1CCC2(CCN(c3cnccc3-c3ccc(CNC(=O)c4cn(C(C)(C)C)nn4)c(C)c3)C2)C1 (stereo not drawn) [Example 4] | IC50 | > 10 nM
C=CC(=O)N(C)CC1CCCN(c2cnccc2-c2ccc(CNC(=O)c3noc(C(C)(C)C)n3)c(C)c2)C1 (stereo not drawn) [Example 21] | IC50 | 1 to 10 nM
C=CC(=O)N(C)C1CCN(c2cnccc2-c2ccc(CNC(=O)c3cn(C(C)(C)C)nn3)c(C)c2)C1=O (stereo not drawn) [Example 11] | IC50 | > 10 nM
C=CC(=O)N(CC)[C@@H]1CCCN(c2cnccc2-c2ccc(CNC(=O)c3cn(C(C)(C)C)nn3)c(C)c2)C1 (stereo in doubt) [Example 16] | IC50 | ≤ 1 nM
C=CC(=O)N(C)[C@@H]1CCC(=O)N(c2cnccc2-c2ccc(CNC(=O)c3nnn(C(C)(C)C)n3)c(C)c2)C1 (single isomer, unassigned) [Example 53 Peak 2] | IC50 | > 10 nM
C=CC(=O)N(C)C1CCCN(c2cnccc2-c2ccc(CNC(=O)c3cc(C(C)(C)C)no3)c(C)c2)C1 (stereo not drawn) [Example 46] | IC50 | ≤ 1 nM
Cc1cc(-c2ccncc2N2CCN(C(=O)/C=C/CN(C)C)C(C)C2)ccc1CNC(=O)c1noc(C(C)(C)C)n1 (stereo not drawn) [Example 74] | IC50 | ≤ 1 nM
Cc1cc(-c2ccncc2N2CCN(C(=O)/C=C/CN(C)C)CC2)ccc1CNC(=O)c1noc(C(C)(C)C)n1 [Example 61] | IC50 | ≤ 1 nM
C=CC(=O)N(C)[C@@H]1CCCN(c2cncc(C#N)c2-c2ccc(CNC(=O)c3cn(C(C)(C)C)nn3)c(C)c2F)C1 [Example 47] | IC50 | ≤ 1 nM
C=CC(=O)N1CCC[C@@H](c2cnccc2-c2ccc(CNC(=O)c3cn(C(C)(C)C)nn3)c(C)c2)C1 (single isomer, unassigned) [Example 25] | IC50 | > 10 nM
Cc1cc(-c2c(F)cncc2N2CCN(C(=O)/C=C/CN(C)C)CC2)ccc1CNC(=O)c1noc(C2(C)CC2)n1 [Example 77] | IC50 | 1 to 10 nM
C=CC(=O)N(C)C1CCCN(c2cnccc2-c2ccc(CNC(=O)c3cnc(C(C)(C)C)o3)c(C)c2)C1 (stereo not drawn) [Example 38] | IC50 | ≤ 1 nM
Cc1cc(-c2ccncc2N2CCN(C(=O)/C=C/CN(C)C)CC2)ccc1CNC(=O)c1nc(C2(CF)CC2)no1 [Example 94] | IC50 | ≤ 1 nM
C=CC(=O)N(C)C1CCCN(c2cnccc2-c2ccc(CNC(=O)c3ncc(C(C)(C)C)o3)c(C)c2)C1 (stereo not drawn) [Example 45] | IC50 | ≤ 1 nM
CN(C)C/C=C/C(=O)N1CCN(c2cnccc2-c2ccc(CNC(=O)c3noc(C4(C)CC4)n3)c(C(F)(F)F)c2)CC1 [Example 91] | IC50 | ≤ 1 nM
C=CC(=O)N(C)C1COCCN(c2cnccc2-c2ccc(CNC(=O)c3cn(C(C)(C)C)nn3)c(C)c2)C1 (stereo not drawn) [Example 52] | IC50 | 1 to 10 nM
C=CC(=O)N1CCN(c2cnccc2-c2ccc(CNC(=O)c3cn(C(C)(C)C)nn3)c(C)c2)CC1 [Example 49] | IC50 | ≤ 1 nM
C=CC(=O)N1CCN(c2cnccc2-c2ccc(CNC(=O)c3noc(C4(C(F)F)CC4)n3)c(C)c2)CC1 [Example 99] | IC50 | ≤ 1 nM
C=CC(=O)N1CCC[C@H](c2cnccc2-c2ccc(CNC(=O)c3cc(C(C)(C)C)on3)c(C)c2)C1 (single isomer, unassigned) [Example 33] | IC50 | 1 to 10 nM
Cc1cc(-c2ccncc2N2CCN(C(=O)/C=C/CN(C)C)CC2)ccc1[C@@H](C)NC(=O)c1noc(C(C)(C)C)n1 [Example 86] | IC50 | 1 to 10 nM
C=CC(=O)N(C)[C@H]1CCC(=O)N(c2cnccc2-c2ccc(CNC(=O)c3nnn(C(C)(C)C)n3)c(C)c2)C1 (single isomer, unassigned) [Example 53 Peak 1] | IC50 | 1 to 10 nM
CN(C)C/C=C/C(=O)N1CCN(c2cnccc2-c2ccc(CNC(=O)c3noc(C(C)(C)C)n3)c(C(F)(F)F)c2)CC1 [Example 90] | IC50 | ≤ 1 nM
C=CC(=O)N1CCN(c2cncnc2-c2ccc(CNC(=O)c3nc(C4(C)CC4)no3)c(C)c2)CC1 [Example 84] | IC50 | ≤ 1 nM
C=CC(=O)N1CCCC(c2cnccc2-c2ccc(CNC(=O)c3cc(C(C)(C)C)on3)c(C)c2)C1 (stereo not drawn) [Example 32] | IC50 | 1 to 10 nM
C=CC(=O)N(C)C1CCN(c2cnccc2-c2ccc(CNC(=O)c3cn(C(C)(C)C)nn3)c(C)c2)C1 (stereo not drawn) [Example 2] | IC50 | 1 to 10 nM
C=CC(=O)N1CCC[C@H](c2cnccc2-c2ccc(CNC(=O)c3cn(C(C)(C)C)nn3)c(C)c2)C1 (single isomer, unassigned) [Example 24] | IC50 | 1 to 10 nM
